biological target: T1, HLA-A*02:01 (human); experiment: UV peptide exchange ELISA
T1 construct: monomers captured on streptavidin plates; also called MHC class I
Answer each item with its documented peptide exchange yield.

# get_value(readout='peptide exchange yield', item= YLEELPEKLKL )
50 to 75%

Moving on to the next binder: SLLPLDDIVRV
50 to 75%

Same question for AIAYILQGV please.
20 to 50%

And then SLATAGDGLIEL , what is it?
20 to 50%
